# Tested on: L-363
# protocol_details: Antiproliferative activity against human L-363 cells assessed as inhibition of cell growth incubated for 72 hrs by cell-titer glo assay
# Format: functional, cell-based
# assay_setup: L-363, 72 h
pIC50: −log10 of the molar value.

{"compound": "CN1CCN(c2ccc(OC(F)(F)F)c(Nc3ncc4c(n3)-c3c(c(C(N)=O)nn3CCO)CC4)c2)CC1 [ONVANSERTIB]", "pIC50": 7.43}

---

# test_system: Activated CDC42 kinase 1 (Homo sapiens, UniProt Q07912)
# Sequence (Q07912 whole entry): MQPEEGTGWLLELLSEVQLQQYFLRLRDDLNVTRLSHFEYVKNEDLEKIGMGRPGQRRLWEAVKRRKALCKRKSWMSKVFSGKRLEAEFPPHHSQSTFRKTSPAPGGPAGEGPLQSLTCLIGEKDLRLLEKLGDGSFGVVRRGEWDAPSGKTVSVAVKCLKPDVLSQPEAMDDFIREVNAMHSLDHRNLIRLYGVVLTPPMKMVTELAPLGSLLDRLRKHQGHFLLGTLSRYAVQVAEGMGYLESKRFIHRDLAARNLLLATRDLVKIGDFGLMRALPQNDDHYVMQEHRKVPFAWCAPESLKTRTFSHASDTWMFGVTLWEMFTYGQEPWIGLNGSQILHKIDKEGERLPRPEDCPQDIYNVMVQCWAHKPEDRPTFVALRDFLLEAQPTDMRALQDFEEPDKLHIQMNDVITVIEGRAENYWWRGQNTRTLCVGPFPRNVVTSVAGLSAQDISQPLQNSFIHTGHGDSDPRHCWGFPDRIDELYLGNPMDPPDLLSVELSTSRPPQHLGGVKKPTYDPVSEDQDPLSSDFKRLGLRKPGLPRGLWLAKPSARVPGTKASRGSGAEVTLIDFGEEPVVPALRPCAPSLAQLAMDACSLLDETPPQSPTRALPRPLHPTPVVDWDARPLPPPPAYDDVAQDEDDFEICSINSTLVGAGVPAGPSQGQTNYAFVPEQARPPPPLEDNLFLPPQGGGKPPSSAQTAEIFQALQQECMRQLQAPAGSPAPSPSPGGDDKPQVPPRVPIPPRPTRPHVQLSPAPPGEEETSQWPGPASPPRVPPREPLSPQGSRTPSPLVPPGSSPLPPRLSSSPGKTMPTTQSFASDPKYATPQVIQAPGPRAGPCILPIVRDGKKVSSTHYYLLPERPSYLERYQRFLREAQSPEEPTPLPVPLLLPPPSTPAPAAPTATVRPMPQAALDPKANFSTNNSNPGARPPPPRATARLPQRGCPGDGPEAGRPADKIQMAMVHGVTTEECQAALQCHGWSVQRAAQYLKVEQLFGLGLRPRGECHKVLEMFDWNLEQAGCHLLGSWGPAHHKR
# protocol_details: Inhibition of ACK1 (unknown origin) in presence of [gamma-33P]ATP

{"molecule": "CN1CCN(c2ccc(OC(F)(F)F)c(Nc3ncc4c(n3)-c3c(c(C(N)=O)nn3CCO)CC4)c2)CC1 [ONVANSERTIB]", "IC50": "> 10 µM"}

---

# test_system: Mitotic checkpoint serine/threonine-protein kinase BUB1 (Homo sapiens, UniProt O43683)
# Sequence (O43683 whole entry): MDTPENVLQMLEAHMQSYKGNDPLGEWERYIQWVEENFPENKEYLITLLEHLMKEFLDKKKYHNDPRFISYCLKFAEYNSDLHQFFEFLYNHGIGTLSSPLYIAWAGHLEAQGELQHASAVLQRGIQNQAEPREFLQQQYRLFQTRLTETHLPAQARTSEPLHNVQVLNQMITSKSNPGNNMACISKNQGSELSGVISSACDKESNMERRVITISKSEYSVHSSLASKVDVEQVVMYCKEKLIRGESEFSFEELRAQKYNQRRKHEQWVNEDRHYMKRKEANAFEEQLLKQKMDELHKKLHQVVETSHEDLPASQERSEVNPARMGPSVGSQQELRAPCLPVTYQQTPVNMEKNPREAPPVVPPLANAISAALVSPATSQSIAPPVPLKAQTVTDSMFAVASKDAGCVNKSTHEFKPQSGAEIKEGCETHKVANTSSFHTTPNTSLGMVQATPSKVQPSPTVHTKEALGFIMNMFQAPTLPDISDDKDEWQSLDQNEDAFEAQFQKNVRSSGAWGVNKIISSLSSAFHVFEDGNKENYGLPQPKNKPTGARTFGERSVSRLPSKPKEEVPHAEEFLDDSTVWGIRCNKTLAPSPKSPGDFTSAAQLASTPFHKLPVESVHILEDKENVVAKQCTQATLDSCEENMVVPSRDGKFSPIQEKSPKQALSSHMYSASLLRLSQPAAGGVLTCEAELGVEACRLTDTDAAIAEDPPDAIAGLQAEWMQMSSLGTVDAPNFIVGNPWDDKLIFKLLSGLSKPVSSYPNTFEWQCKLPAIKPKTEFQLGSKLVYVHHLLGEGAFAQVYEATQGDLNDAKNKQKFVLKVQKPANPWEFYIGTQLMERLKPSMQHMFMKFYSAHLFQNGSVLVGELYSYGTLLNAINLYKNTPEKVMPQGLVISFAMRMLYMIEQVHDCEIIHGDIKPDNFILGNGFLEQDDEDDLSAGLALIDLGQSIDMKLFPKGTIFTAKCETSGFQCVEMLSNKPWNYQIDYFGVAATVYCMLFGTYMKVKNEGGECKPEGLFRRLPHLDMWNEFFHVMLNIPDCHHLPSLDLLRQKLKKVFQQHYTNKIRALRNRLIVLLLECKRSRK
readout_label: IC50

{"smiles_string": "CN1CCN(c2ccc(OC(F)(F)F)c(Nc3ncc4c(n3)-c3c(c(C(N)=O)nn3CCO)CC4)c2)CC1", "meas_value": "> 10 µM"}

---

# System: CAMA-1
# protocol_details: Antiproliferative activity against human CAMA-1 cells assessed as inhibition of cell growth incubated for 72 hrs by cell-titer glo assay
# Assay type: functional, cell-based
# assay_setup: CAMA-1, 72 h
readout_label: IC50 (nM)

{"molecule": "CN1CCN(c2ccc(OC(F)(F)F)c(Nc3ncc4c(n3)-c3c(c(C(N)=O)nn3CCO)CC4)c2)CC1 [ONVANSERTIB]", "readout_label": "IC50", "meas_value": 350}

---

# protocol_details: Antiproliferative activity against human HCC15 cells assessed as inhibition of cell growth incubated for 72 hrs by cell-titer glo assay
# Assay type: functional, cell-based
# assay_setup: HCC15, 72 h
readout_label: IC50 (nM)

{"compound": "CN1CCN(c2ccc(OC(F)(F)F)c(Nc3ncc4c(n3)-c3c(c(C(N)=O)nn3CCO)CC4)c2)CC1 [ONVANSERTIB]", "readout_label": "IC50", "meas_value": 15}

---

# protocol_details: Cmax in Beagle dog at 5 mg/kg, po by LC-MS analysis
# Format: ADME, organism-based, Canis lupus familiaris
# assay_setup: in vivo

{"molecule": "CN1CCN(c2ccc(OC(F)(F)F)c(Nc3ncc4c(n3)-c3c(c(C(N)=O)nn3CCO)CC4)c2)CC1 [ONVANSERTIB]", "Cmax (nM)": 1200}

---

# Test system: SU-DHL-1
# protocol_details: Antiproliferative activity against human SU-DHL-1 cells assessed as inhibition of cell growth incubated for 72 hrs by cell-titer glo assay
# Type: functional, cell-based
# assay_setup: SU-DHL-1, 72 h
pIC50: −log10 of the molar value.

{"smiles_string": "CN1CCN(c2ccc(OC(F)(F)F)c(Nc3ncc4c(n3)-c3c(c(C(N)=O)nn3CCO)CC4)c2)CC1", "test_system": "SU-DHL-1", "pIC50": 7.02}

---

# test_system: Serine/threonine-protein kinase 26 (Homo sapiens)
# Sequence (Q9P289 whole entry): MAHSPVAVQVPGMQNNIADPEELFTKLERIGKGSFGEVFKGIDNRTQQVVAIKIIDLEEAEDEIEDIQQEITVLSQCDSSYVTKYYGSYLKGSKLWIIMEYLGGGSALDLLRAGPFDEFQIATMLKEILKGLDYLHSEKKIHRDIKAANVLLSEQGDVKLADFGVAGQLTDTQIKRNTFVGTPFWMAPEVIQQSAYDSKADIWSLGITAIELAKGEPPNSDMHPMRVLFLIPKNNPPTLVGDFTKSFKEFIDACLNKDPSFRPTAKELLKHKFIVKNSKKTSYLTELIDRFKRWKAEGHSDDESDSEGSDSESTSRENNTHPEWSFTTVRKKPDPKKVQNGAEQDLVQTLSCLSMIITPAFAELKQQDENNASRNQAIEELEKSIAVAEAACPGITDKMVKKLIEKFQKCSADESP
pIC50: −log10 of the molar value.

{"smiles_string": "CN1CCN(c2ccc(OC(F)(F)F)c(Nc3ncc4c(n3)-c3c(c(C(N)=O)nn3CCO)CC4)c2)CC1", "test_system": "Serine/threonine-protein kinase 26 (Homo sapiens)", "pIC50": "< 5.00"}
